Ref: ChEMBL document CHEMBL1146203

- assayProtocol: Volume of distribution at steady state in rat at 2 mg/kg, iv
- Type: ADME, organism-based
- Set-up: dose 2 mg/kg, route intravenous
- conditionInfo: in vivo, read-out: Vdss
valueType: Vd (L/kg)

compound=CCN1CCN(c2ccc(C(C)(C)NC(=O)c3cc4[nH]c5ccccc5c(=O)c4cc3F)cn2)CC1 resultunit=L/kg datavalue=7.4

* * *

- assayProtocol: AUC in rat at 10 mg/kg, po
- Format: ADME, organism-based
- Design: dose 10 mg/kg, route oral
- conditionInfo: plasma
valueType: AUC (µM·h)

compound=CCN1CCN(c2ccc(C(C)(C)NC(=O)c3cc4[nH]c5ccccc5c(=O)c4cc3F)cn2)CC1 valuetype=AUC datavalue=5.2
